Attribute: collision cross section in nitrogen
Test: collision cross section in nitrogen (drift tube, single-field); higher = larger gas-phase ion size;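 further: chemical standards at 10 µM analysed by drift tube IMS-QTOF MS in about 3.95 torr nitrogen, mean of duplicate injections differing ≤1%, mass error below 10 ppm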
Details: ion type: [M-H]; ion source: ESI; ion mode: Negative
Where a name gives a salt, the structure may show the parent alone.
State just the number; it will be interpreted in Å².

Solved cases below.
> print(dat)
                                   compound  measurement
1  Cc1c(C2(c3cc(Br)c(O)c(Br)c3C)OS(=O)(=O)c3ccccc32)cc(Br)c(O)c1Br [Bromcresol green]          217
2  COC(=O)c1ccc(I)cc1S(=O)(=O)NC(=O)Nc1nc(C)nc(OC)n1 [Iodosulfuron methyl ester sodium salt]        196.1
3  O=C(O)C1=NN(c2ccc(S(=O)(=O)O)cc2)C(=O)C1        162.5
4  N#Cc1ccc(N(CC(N)=O)CC(F)(F)F)cc1C(F)(F)F        163.7
5  Cc1ccc2[nH]nnc2c1 [5-Methyl-1H-benzotriazole]        125.2
6  O=S(=O)(O)c1ccccc1C=Cc1ccc(-c2ccc(C=Cc3ccccc3S(=O)(=O)O)cc2)cc1 [Disodium 4,4'-bis(2-sulfostyryl)biphenyl]        248.5
7    N#Cc1ccc(O)cc1 [4-Hydroxybenzonitrile]        118.1

Please find the next compound below.
Task item: Can you look up the measured collision cross section in nitrogen of Nc1ccc([N+](=O)[O-])cc1Cl [2-Chloro-4-nitroaniline] for me?
Reply: 126.1

* * *

Experiment: collision cross section in nitrogen (drift tube, single-field); higher = larger gas-phase ion size
Conditions: ion type: [M+H]; ion source: ESI; ion mode: Positive
Let's look at some compounds and their measured collision cross section in nitrogen.
Give your result in Å² as a bare value.

The examples below pair each entry with its known result.
> print(dat)
                                   compound  units.symbol  measurement
1  CCC[C@H](N[C@@H](C)C(=O)N1[C@H](C(=O)O)C[C@@H]2CCCC[C@@H]21)C(=O)OCC [Perindopril erbumine]            Å²        189.7
2  CCSC(C)CC1CC(=O)C(C(CC)=NOC/C=C/Cl)=C(O)C1 (configuration not stated) [Clethodim]            Å²        187.7
3  CCOC(=O)C(C)Oc1ccc(Oc2nc3ccc(Cl)cc3o2)cc1 (configuration not stated) [Fenoxaprop-ethyl]            Å²        189.3

Task item: Quick check: collision cross section in nitrogen of Cc1ccc(OP(=O)(Oc2ccc(C)cc2)Oc2ccc(C)cc2)cc1 [Tris(4-methylphenyl) phosphate] ?
Reply: 190.1

Task item: Okay, and C=C1C[C@H]2[C@@H]3C=C(C)C4=CC(=O)CC[C@]4(C)[C@H]3CC[C@]2(C)[C@@]1(OC(C)=O)C(C)=O [Melengestrol acetate] ?
Reply: 200.3

Task item: Proceed to COc1cnc(OC)n2nc(NS(=O)(=O)c3c(OCC(F)F)cccc3C(F)(F)F)nc12 [Penoxsulam]
Reply: 195.6

Task item: Next entry: CCN(CCC#N)c1ccc(N=Nc2ccc([N+](=O)[O-])cc2)cc1 [C.I. Disperse Orange 25]
Reply: 188.8

* * *

Assay: collision cross section in nitrogen (drift tube, single-field); higher = larger gas-phase ion size
Conditions: ion source: ESI; ion mode: Positive; ion type: [M]+ (permanent cation)
Quick reference: collision cross section in nitrogen of the listed items.
Supply the numeric figure in Å², leaving out any unit text.

> print(dat)
                                   compound  measurement
1                C=C(C)C(=O)NCCC[N+](C)(C)C        143.3
2  CC[N+](CC)(CC)CC [Tetraethylammonium bromide]        125.7

Below: the item to evaluate.
Task item: Consider the compound CCCCCCCCCCCCCCCCCC[N+](C)(C)C [N,N,N-Trimethyloctadecan-1-aminium chloride] and give its measured collision cross section in nitrogen.
Reply: 200.7

* * *

Experiment: collision cross section in nitrogen (drift tube, single-field); higher = larger gas-phase ion size
Details: ion type: [M+H]; ion source: APCI; ion mode: Positive
Structures can show the parent of a compound that is named as a salt.
Lab note: compare collision cross section in nitrogen against 200 Å². Equal or greater, write y. Smaller, write n.

Reference set (6 entries):
> print(dat)
                                   compound  category.label
1  COc1ccc(C(=O)c2ccccc2)c(O)c1 [2-Hydroxy-4-methoxybenzophenone]               n
2  O=C1OC2(c3ccccc31)c1cc(I)c(O)c(I)c1Oc1c2cc(I)c(O)c1I [FD&C Red 3]               y
3  Cc1ccc2nc(-c3ccc(N)cc3)sc2c1 [Dehydrothio-4-toluidine]               n
4  COc1ccc2nc(N)sc2c1 [6-Methoxy-2-benzothiazolamine]               n
5  Cc1ccccc1OP(=O)(Oc1ccccc1C)Oc1ccccc1C [Tri-o-cresyl phosphate]               n
6  Cc1ccc2c(c1)CCCN2 [6-Methyl-1,2,3,4-tetrahydroquinoline]               n

Task item: Does Cc1ccc(OP(=O)(Oc2ccc(C)cc2)Oc2ccc(C)cc2)cc1 [Tris(4-methylphenyl) phosphate] have a reported collision cross section in nitrogen of at least 200 Å²?
Reply: n

Task item: Then this compound: CCCCc1oc2ccccc2c1C(=O)c1cc(I)c(OCCN(CC)CC)c(I)c1 [Amiodarone hydrochloride]
Reply: y

* * *

Test: collision cross section in nitrogen (drift tube, single-field); higher = larger gas-phase ion size
Details: ion type: [M+H]; ion source: ESI; ion mode: Positive
Examples of compounds with documented collision cross section in nitrogen follow.
Write down the numeric answer in Å² and omit the unit.

Answered cases to consult:
> print(dat)
                                   compound                        quantity.name  units.symbol  measurement
1                       CN(C)C(=O)Nc1ccccc1  collision cross section in nitrogen            Å²        134.4
2                    Cc1cc(=O)oc2cc(O)ccc12  collision cross section in nitrogen            Å²        132.6
3  CC(C)(c1ccccc1)c1ccc(Nc2ccc(C(C)(C)c3ccccc3)cc2)cc1  collision cross section in nitrogen            Å²        220.3
4  O=S(=O)(c1ccc2c(c1)CCCN2)N1CCC[C@@H]2CCCC[C@H]21  collision cross section in nitrogen            Å²        178.5
5                          Nc1ccnc(=O)[nH]1  collision cross section in nitrogen            Å²        118.8
6  O=C(O)c1ccc2c(c1)nc(C(=O)NC1CCN(C3CC3)CC1)n2Cc1cc(-c2ccc(Cl)s2)on1  collision cross section in nitrogen            Å²        228.8
7  CCC(C)N(C)C(=O)c1cc2ccccc2c(-c2ccccc2Cl)n1 (stereo unspecified)  collision cross section in nitrogen            Å²        185.9
8  Cc1cc(SCc2sc(-c3ccc(C(F)(F)F)c(F)c3)nc2C)ccc1OCC(=O)O  collision cross section in nitrogen            Å²        194.2

Task item: Recorded collision cross section in nitrogen for Cc1nc(-c2ccc(OCC(C)C)c(C#N)c2)sc1C(=O)O , please?
Reply: 183.6

Task item: Entry to check: CNP(=O)(OC)Oc1ccc(C(C)(C)C)cc1Cl (stereo unspecified) [Crufomate]
Reply: 165

Task item: Would you kindly repeat that for OCCC1CCCCN1 (stereo unspecified) ?
Reply: 126.6

Task item: # repeat for Cc1cccc(Nc2ccccc2)c1
Reply: 143.6

Task item: Moving on to COc1c2ccoc2cc2oc(=O)ccc12
Reply: 140.3

Task item: Input CSc1nc(N=[N+]=[N-])nc(NC(C)C)n1
Reply: 148.9

Task item: Consider next the compound CSc1nc(NC(C)C)nc(NC(C)C)n1 in the same way.
Reply: 161

Task item: Further, for FC(F)(F)c1ccc(OCCCOc2c(Cl)cc(OCC=C(Cl)Cl)cc2Cl)nc1 ?
Reply: 203.8

Task item: Note, next up: Cc1ncsc1CCO
Reply: 126.5

Task item: What about CC(=O)Nc1ccc(CC(=O)O)cc1 ?
Reply: 143.7

Task item: Likewise for CC1(C)S[C@@H]2[C@H](NC(=O)COc3ccccc3)C(=O)N2[C@H]1C(=O)O ?
Reply: 182.1

* * *

Test: collision cross section in nitrogen (drift tube, single-field); higher = larger gas-phase ion size
Details: ion source: ESI; ion mode: Positive; ion type: [M]+ (permanent cation)
quantity_name: collision cross section in nitrogen
Answer shape: numeric part, then the unit.

Sample records with collision cross section in nitrogen:
> print(dat)
                                   compound  measurement
1  Cc1ncc(C[n+]2csc(CCO)c2C)c(N)n1 [Thiamine]     162.7 Å²
2  CCCCCCCC[N+](C)(C)Cc1ccccc1 [Benzalkonium chloride C8 (BAC C8)]     171.3 Å²
3  C[N+]1(C)CCCCC1 [1,1-Dimethylpiperidinium chloride]     121.2 Å²
4  CCCC[N+](CCCC)(CCCC)CCCC [Tetrabutylammonium bromide]       168 Å²

Now for a further compound.
Task item: Suppose we examine the compound CCCCCCCCCCCCCCCC[N+](C)(C)CC [Quaternium 17] ; what collision cross section in nitrogen value has been reported?
Reply: 197.2 Å²
